Tested on: DC-stimulated T cell proliferation
assay remarks: DC-stimulated T cell proliferation assay (MLR); note: test concentration or dose not given here
Type: cell-based, human
run conditions: T:DC 50:1; MTT, A570 nm, 72 hours
Quick list: T:DC (absorbance value) per entry.
endpoint label: T:DC (absorbance value)

> print(dat)
                                   molecule                    target.or.system           endpoint.label  reported.measurement
1  NS(=O)(=O)NCCNc1nonc1C(=Nc1ccc(F)c(Br)c1)NO [INCB024360, reference compound]  DC-stimulated T cell proliferation  T:DC (absorbance value)                 0.799
2  N/C(=N\C(=O)C1CCC1)NCCCNc1nonc1/C(=N/O)Nc1ccc(F)c(Br)c1  DC-stimulated T cell proliferation  T:DC (absorbance value)                 0.837
3  N=C(NCCNc1nonc1/C(=N/O)Nc1ccc(F)c(Br)c1)NS(=O)(=O)c1ccccc1  DC-stimulated T cell proliferation  T:DC (absorbance value)                 0.831
